# Protocol Summary: Phototoxicity in normal human keratinocytes after 24 hrs incubation in dark by WST1 assay
# Format: cell-based
# Reported Conditions: Keratinocyte, light or radiation study
The entries below come with measured IC50 values attached.

{"Cpd Smiles": "Cc1ccc(C(=O)Nc2ccc3cc4ccc(NC(=O)c5ccc(C)cc5)cc4nc3c2)cc1", "IC50": "> 50 µM"}
{"Cpd Smiles": "O=C(Nc1ccc2cc3ccc(NC(=O)c4ccc(Cl)c(Cl)c4)cc3nc2c1)c1ccc(Cl)c(Cl)c1", "IC50": "> 50 µM"}
{"Cpd Smiles": "O=C(Nc1ccc2cc3ccc(NC(=O)c4cc(C(F)(F)F)cc(C(F)(F)F)c4)cc3nc2c1)c1cc(C(F)(F)F)cc(C(F)(F)F)c1", "IC50": "> 50 µM"}
{"Cpd Smiles": "COC(=O)Nc1ccc2cc3ccc(NC(=O)OC)cc3nc2c1", "IC50": "> 50 µM"}
{"Cpd Smiles": "CC(C)(C)C(=O)Nc1ccc2cc3ccc(NC(=O)C(C)(C)C)cc3nc2c1", "IC50": "3.28 µM"}
